Target: Peroxisome proliferator-activated receptor gamma (Homo sapiens)
Experiment Summary: Agonist activity at PPARgamma (unknown origin) transfected in HEK293 cells assessed as transcriptional activity at 10 uM relative to rosiglitazone
Format: cell-based
Endpoint: Emax

Some compounds with recorded Emax:
>  <Structure Notation>
COc1ccc(S(=O)(=O)Nc2cnc(OC3CCN(c4ccccc4)CC3)c(Cl)c2)cc1

>  <Endpoint>
Emax

>  <Reading>
15%

$$$$
>  <Structure Notation>
O=S(=O)(Nc1cnc(OC2CCN(c3ccccc3)CC2)c(Cl)c1)c1ccc(C(F)(F)F)cc1

>  <Endpoint>
Emax

>  <Reading>
14%

$$$$
>  <Structure Notation>
CN(CCOc1ccc(NS(=O)(=O)c2ccc(Cl)c(Cl)c2)cn1)c1nc2ccccc2o1

>  <Endpoint>
Emax

>  <Reading>
14%

$$$$

Field request: Emax | item: N#Cc1ccc(S(=O)(=O)Nc2cnc(OC3CCN(c4ccccc4)CC3)c(Cl)c2)cc1
11%

Continue with O=S(=O)(Nc1cnc(OC2CCN(c3ccccc3)CC2)c(Cl)c1)c1ccc(F)c(Cl)c1
10%

Queued: O=S(=O)(Nc1cnc(OC2CCN(c3ccccc3)CC2)c(Cl)c1)c1ccc(-c2ccccn2)s1
13%

Then this compound: O=S(=O)(Nc1cnc(OC2CCN(c3ccccc3)CC2)c(Cl)c1)c1ccc(Cl)cc1Cl
14%

// same read-out, input: CN(CCOc1ncc(NS(=O)(=O)c2ccc(Cl)cc2Cl)cc1Cl)c1nc2ccccc2o1
16%

Please answer likewise for O=S(=O)(Nc1cnc(OC2CCN(c3ccccc3)CC2)c(Cl)c1)c1ccc(F)cc1F
12%

Follow-up entry: COc1ccc(S(=O)(=O)Nc2cnc(OC3CCN(c4ccccc4)CC3)c(Cl)c2)c(OC)c1
17%

What about Cc1ccccc1S(=O)(=O)Nc1cnc(OC2CCN(c3ccccc3)CC2)c(Cl)c1 ?
12%
